- System: neutrophils
- Assay type: cell-based, rabbit
Non-standard residues stand in square brackets, D forms with d. Residues, ends and D or L forms follow the SMILES beside them. *: point of attachment. Nle = CCCC[C@H](N)C(=O)O; For = O=C*
ED50 ± SE B-Glucoronidase for assorted compounds

# annotated cases, reported ED50 ± SE B-Glucoronidase shown
CSCC[C@H](NC=O)C(=O)N[C@@H](Cc1ccccc1)C(=O)O [f--Met--Phe--OH] (For-Met-Phe-OH) | 2.0 ± 0.42 × 10^-6 M
CSCC[C@H](NC=O)C(=O)N[C@@H](CCSC)C(=O)N[C@@H](Cc1ccccc1)C(=O)O [f--Met--Met--Phe--OH] (For-Met-Met-Phe-OH) | 1.8 ± 0.24 × 10^-9 M
CSCC[C@H](NC(=O)[C@H](CCSC)NC(=O)[C@H](CCSC)NC(=O)[C@H](CCSC)NC=O)C(=O)O [f--Met--Met--Met--Met--OH] (For-MMMM-OH) | 3.0 ± 0.73 × 10^-9 M
CSCC[C@H](NC=O)C(=O)N[C@@H](CC(C)C)C(=O)N[C@@H](Cc1ccccc1)C(=O)N[C@@H](CCCCN)C(=O)O [f--Met--Leu--Phe--Lys--OH] (For-MLFK-OH) | 1.9 ± 0.3 × 10^-9 M

Could you tell me which ED50 ± SE B-Glucoronidase is on file for CCCC[C@H](NC=O)C(=O)N[C@@H](CC(C)C)C(=O)N[C@@H](Cc1ccccc1)C(=O)O [f--Nle--Leu--Phe--OH] (For-[Nle]-Leu-Phe-OH) ?
1.9 ± 0.2 × 10^-9 M

Where do the numbers come from? From patent US4427660A.
